TARGET OR SYSTEM: serotonin receptor (Rattus norvegicus)
Construct: To a cerebral cortex nucleated from a Wistar-strain male rat
Sequence (P19327 whole entry): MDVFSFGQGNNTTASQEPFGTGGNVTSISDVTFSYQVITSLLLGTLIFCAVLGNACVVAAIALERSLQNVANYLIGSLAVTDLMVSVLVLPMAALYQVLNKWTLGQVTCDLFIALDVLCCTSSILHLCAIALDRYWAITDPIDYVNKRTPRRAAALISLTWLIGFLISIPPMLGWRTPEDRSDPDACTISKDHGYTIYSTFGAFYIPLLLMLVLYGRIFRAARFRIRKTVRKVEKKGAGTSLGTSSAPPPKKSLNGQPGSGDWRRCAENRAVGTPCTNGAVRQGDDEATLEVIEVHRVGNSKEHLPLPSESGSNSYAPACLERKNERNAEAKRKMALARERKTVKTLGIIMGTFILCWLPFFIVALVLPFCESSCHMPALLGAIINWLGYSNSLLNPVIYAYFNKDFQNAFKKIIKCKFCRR
ASSAY REMARKS: Affinity for serotonin receptor, [3H]8-OHDPAT binding test in rat cerebral cortex
ASSAY CONDITIONS: [3H]8-OHDPAT 0.4 nM; rat cerebral cortex membranes; pH 7.4; 25° C., 30 minutes; read-out: [^3 H]-8-OH-DPAT IC50
Please note: IC50 exactly at 60 nM is Condition not met. Only values below 60 nM get Condition met.

Q: A record lists `CN1CC(=O)N(CCCCN2CCN(c3ncccn3)CC2)C(=O)c2ccccc21` . Is its IC50 below 60 nM?
A: Condition not met

Q: And `O=C1CCc2ccccc2C(=O)N1CCCCN1CCN(c2ccccn2)CC1` ?
A: Condition met

Q: And `O=C1CSc2ccccc2C(=O)N1CCCCN1CCN(c2ccccc2)CC1` ?
A: Condition met

Q: And `O=C1CSc2ccccc2C(=O)N1CCCCN1CCN(c2ncccn2)CC1` ?
A: Condition met

Q: And `O=C1CNc2ccccc2C(=O)N1CCCCN1CCN(c2ccccn2)CC1` ?
A: Condition met

Q: And `O=C1CNc2ccccc2C(=O)N1CCCCN1CCN(c2ncccn2)CC1` ?
A: Condition not met

Q: And `O=C1CSc2ccccc2C(=O)N1CCCCN1CCN(c2ccccn2)CC1` ?
A: Condition met
